# assaySummary: Rat PK
# Assay type: in vivo
# settings: male, Wistar, rat, in vivo, iv; 0.2mg/kg i.v.; read-out: Rat PK Cl (converted)
observable: clearance (mL/min/kg)
Write the value in mL/min/kg as a bare number.

## Input Given the entry `Cc1n[nH]c2ncc(C(=O)N3CCC[C@H]3c3ccc(Cl)cc3)cc12` , report its measured clearance.
## Output 25

* * *

# testSystem: UniProt:P49840
# Sequence (P49840 whole entry, species assumed): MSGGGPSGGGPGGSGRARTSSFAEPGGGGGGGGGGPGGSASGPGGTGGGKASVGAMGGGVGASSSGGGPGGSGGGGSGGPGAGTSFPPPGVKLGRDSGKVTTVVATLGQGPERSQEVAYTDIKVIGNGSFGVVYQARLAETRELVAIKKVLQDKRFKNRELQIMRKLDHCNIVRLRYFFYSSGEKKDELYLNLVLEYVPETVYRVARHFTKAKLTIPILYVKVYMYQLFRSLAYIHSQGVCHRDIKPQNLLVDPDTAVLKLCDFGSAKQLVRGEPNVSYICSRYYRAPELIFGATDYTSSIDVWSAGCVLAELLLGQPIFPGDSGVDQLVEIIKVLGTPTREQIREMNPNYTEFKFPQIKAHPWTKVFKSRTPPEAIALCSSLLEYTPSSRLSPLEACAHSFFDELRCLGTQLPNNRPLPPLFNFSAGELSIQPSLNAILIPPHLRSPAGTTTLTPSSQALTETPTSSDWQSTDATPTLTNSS
observable: pIC50
The value called pIC50 is obtained by taking minus log10 of the concentration in mol/L.

## Input Lab request: please report pIC50 under test system UniProt:P49840 for Cc1n[nH]c2ncc(C(=O)N3CCC[C@H]3c3ccc(Cl)cc3)cc12 [CMPD 4]
## Output 6.16

* * *

# testSystem: UniProtKB P49336
# Sequence (P49336 whole entry): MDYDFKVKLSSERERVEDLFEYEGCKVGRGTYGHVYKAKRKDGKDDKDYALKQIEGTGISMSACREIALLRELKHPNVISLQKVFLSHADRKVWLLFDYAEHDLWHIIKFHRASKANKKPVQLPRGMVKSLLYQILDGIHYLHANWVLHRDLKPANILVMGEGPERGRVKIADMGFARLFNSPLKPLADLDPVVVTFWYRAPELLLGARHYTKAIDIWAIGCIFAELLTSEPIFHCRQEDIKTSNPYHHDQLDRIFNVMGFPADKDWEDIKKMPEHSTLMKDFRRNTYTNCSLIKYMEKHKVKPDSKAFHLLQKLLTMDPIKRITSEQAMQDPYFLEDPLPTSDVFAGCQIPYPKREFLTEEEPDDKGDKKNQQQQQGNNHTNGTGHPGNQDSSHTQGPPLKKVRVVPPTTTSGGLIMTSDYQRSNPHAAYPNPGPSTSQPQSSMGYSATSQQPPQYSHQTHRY
# Sequence (P24863 whole entry partner): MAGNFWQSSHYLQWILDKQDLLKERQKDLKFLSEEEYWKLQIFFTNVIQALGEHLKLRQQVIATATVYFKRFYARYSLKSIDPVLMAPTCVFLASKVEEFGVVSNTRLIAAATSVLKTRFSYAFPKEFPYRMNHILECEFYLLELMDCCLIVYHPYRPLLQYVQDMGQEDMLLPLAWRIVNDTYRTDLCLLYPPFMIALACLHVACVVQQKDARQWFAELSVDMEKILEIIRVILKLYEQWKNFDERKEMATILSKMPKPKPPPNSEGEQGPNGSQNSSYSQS
# assaySummary: CDK8 binding (Lanthascreen binding competition / reporter displacement assay)
observable: pIC50
Please express pIC50 as -log10 of the molar concentration.

## Input For the compound `Cc1n[nH]c2ncc(C(=O)N3CCC[C@H]3c3ccc(Cl)cc3)cc12` , what pIC50 is on record?
## Output 8.36

* * *

# assaySummary: Caco-2 permeability
# Assay type: in vitro ADME
# settings: human
observable: efflux ratio
Lab note: record the figure alone, no unit after it.

## Input State the recorded efflux ratio for this entry: `Cc1n[nH]c2ncc(C(=O)N3CCC[C@H]3c3ccc(Cl)cc3)cc12`
## Output 1.49
